PROTOCOL_DESCRIPTION: yeast display, Sf9 membrane polyspecificity reagent, FACS + sequencing; frameworks hold sequencing errors
PROPERTY_NAME: polyreactivity (PSR sort gate)

sequence_input=QVQLVESGGGLVQAGGSLRLSCAASGFIFWYYTMGGYRQAPGKERELVAAISRSGASTYYADSVKGRFTISRDNAKNTVYLQMNSLKPEDTAVYYCAKDYQTYSGSSDFDYWGQGTQVTVSS property_name="polyreactivity (PSR sort gate)" reported_result="high polyreactivity"
sequence_input=QVQLVESGGGIVQAGGSLRLSCAASGSTFNANGMGWYRQAPGKERELVAAISWRGSTYYADSVKGRFTISRDNAKNTVYLQMNSLKPEDTAVYYCAAYRYSWSYQYRYGYWGQGTQVTVSS property_name="polyreactivity (PSR sort gate)" reported_result="high polyreactivity"
